- Target System: T1, human GIP receptor (human, UniProt P48546 22-466)
- T1 sequence (looked up): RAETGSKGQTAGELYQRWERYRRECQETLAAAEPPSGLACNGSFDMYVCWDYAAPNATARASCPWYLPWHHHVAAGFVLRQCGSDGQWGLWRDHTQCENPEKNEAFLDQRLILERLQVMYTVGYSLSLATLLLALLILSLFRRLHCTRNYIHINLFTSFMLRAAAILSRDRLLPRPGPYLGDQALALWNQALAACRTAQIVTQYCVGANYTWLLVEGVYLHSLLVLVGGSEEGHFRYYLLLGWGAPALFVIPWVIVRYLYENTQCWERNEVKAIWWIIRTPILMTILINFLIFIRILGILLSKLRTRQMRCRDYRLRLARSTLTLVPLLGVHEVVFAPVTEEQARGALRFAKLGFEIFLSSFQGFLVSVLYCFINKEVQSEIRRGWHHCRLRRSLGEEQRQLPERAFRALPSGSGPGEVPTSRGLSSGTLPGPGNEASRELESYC
- Run Description: cell-based or functional assay
*1 amine or outer side, *2 acyl side, *3 side chain or, on linkers, in order; H or OH if unused. Where no end group is shown, it is not given here. Side-chain parts run from the residue outwards. [ ]: non-standard residue; d: D form. The star is where a group is joined. Decanoyl(10-(4-HOOC-PhO)) = O=C(O)c1ccc(OCCCCCCCCCC(=O)*)cc1; αMePhe(2-F) = C[C@](N)(Cc1ccccc1F)C(=O)O; γGlu = O=C(O)[C@H](CCC(=O)[*:2])N[*:1]; αMeY = C[C@](N)(Cc1ccc(O)cc1)C(=O)O; αMeL = CC(C)C[C@](C)(N)C(=O)O; Orn = NCCC[C@H](N)C(=O)O; AEEA = NCCOCCOCC(=O)O; Aib = CC(C)(N)C(=O)O
// map cAMP EC50 (1.0% HSA) to label using lo: < 0.4 nM; med: ≥ 0.4 nM and < 1 nM; hi: ≥ 1 nM

Past entries and their recorded results:
[
  {
    "Binder": "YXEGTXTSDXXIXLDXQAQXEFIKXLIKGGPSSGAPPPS (Y-Aib-EGT-αMeF(2F)-TSD-4Pal-Aib-I-αMeL-LD-Orn-QAQ-Aib-EFIK((2-[2-(2-Amino-ethoxy)-ethoxy]-acetyl)2-(γ-Glu)-CO-(CH2)12-CO2H)-αMeY-LIK((2-[2-(2-Amino-ethoxy)-ethoxy]-acetyl)2-(γ-Glu)-CO-(CH2)12-CO2H)GGPSSGAPPPS-NH2) [Example 411]",
    "Label Class": "hi"
  },
  {
    "Binder": "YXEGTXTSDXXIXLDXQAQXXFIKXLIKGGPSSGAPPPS (Y-Aib-EGT-αMeF(2F)-TSD-4Pal-Aib-I-αMeL-LD-Orn-QAQ-Aib-Orn-FIK(PEG5-(γ-Glu)-(10-(4-carboxyphenoxy)decanoyl))-αMeY-LIK(PEG5-(γ-Glu)-(10-(4-carboxyphenoxy)decanoyl))GGPSSGAPPPS-NH2) [Example 469]",
    "Label Class": "lo"
  },
  {
    "Binder": "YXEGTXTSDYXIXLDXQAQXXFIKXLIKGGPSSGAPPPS (Y-Aib-EGT-αMeF(2F)-TSDY-Aib-I-αMeL-LD-Orn-QAQ-Aib-Orn-FIK((2-[2-(2-Amino-ethoxy)-ethoxy]-acetyl)2-(γ-Glu)-CO-(CH2)12-CO2H)-αMeY-LIK((2-[2-(2-Amino-ethoxy)-ethoxy]-acetyl)2-(γ-Glu)-CO-(CH2)12-CO2H)GGPSSGAPPPS-NH2) [Example 401]",
    "Label Class": "med"
  },
  {
    "Binder": "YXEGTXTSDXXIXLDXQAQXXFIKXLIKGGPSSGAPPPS (Y-Aib-EGT-αMeF(2F)-TSD-4Pal-Aib-I-αMeL-LD-Orn-QAQ-Aib-4Pal-FIK((2-[2-(2-Amino-ethoxy)-ethoxy]-acetyl)2-(γ-Glu)-CO-(CH2)12-CO2H)-αMeY-LIK((2-[2-(2-Amino-ethoxy)-ethoxy]-acetyl)2-(γ-Glu)-CO-(CH2)12-CO2H)GGPSSGAPPPS-NH2) [Example 444]",
    "Label Class": "med"
  },
  {
    "Binder": "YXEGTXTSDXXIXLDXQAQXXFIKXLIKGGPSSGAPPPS (Y-Aib-EGT-αMeF(2F)-TSD-4Pal-Aib-I-αMeL-LD-Orn-QAQ-Aib-Orn-FIK((2-[2-(2-Amino-ethoxy)-ethoxy]-acetyl)2-(γ-Glu)2--(10-(4-carboxyphenoxy)decanoyl))-αMeY-LIK((2-[2-(2-Amino-ethoxy)-ethoxy]-acetyl)2-(γ-Glu)2--(10-(4-carboxyphenoxy)decanoyl))GGPSSGAPPPS-NH2) [Example 475]",
    "Label Class": "lo"
  },
  {
    "Binder": "Y[Aib]EGT[αMePhe(2-F)]TSDV[Aib]I[αMeL]LD[Orn]IAQ[Aib][Orn]FIK([AEEA-AEEA-γGlu-Decanoyl(10-(4-HOOC-PhO))])[αMeY]LIK([AEEA-AEEA-γGlu-Decanoyl(10-(4-HOOC-PhO))])GGPSSGAPPPS-NH2 [Example 356]",
    "Label Class": "hi"
  }
]

### Prompt Please classify: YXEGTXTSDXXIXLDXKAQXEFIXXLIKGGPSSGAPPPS (Y-Aib-EGT-αMeF(2F)-TSD-4Pal-Aib-I-αMeL-LD-Orn-K((2-[2-(2-Amino-ethoxy)-ethoxy]-acetyl)2-(10-(4-carboxyphenoxy)decanoyl))AQ-Aib-EFI-(D-Glu)-αMeY-LIK((2-[2-(2-Amino-ethoxy)-ethoxy]-acetyl)2-(10-(4-carboxyphenoxy)decanoyl))GGPSSGAPPPS-NH2) [Example 395]
### Response lo

### Prompt Please classify: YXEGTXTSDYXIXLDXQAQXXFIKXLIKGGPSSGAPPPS (Y-Aib-EGT-αMeF(2F)-TSDY-Aib-I-αMeL-LD-Orn-QAQ-Aib-Orn-FIK((2-[2-(2-Amino-ethoxy)-ethoxy]-acetyl)2-(γ-Glu)--C10_4CP)-αMeY-LIK((2-[2-(2-Amino-ethoxy)-ethoxy]-acetyl)2-(γ-Glu)--C10_4CP)GGPSSGAPPPS-NH2) [Example 492]
### Response lo

### Prompt Please classify: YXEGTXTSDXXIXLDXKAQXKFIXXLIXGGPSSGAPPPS (Y-Aib-EGT-αMeF(2F)-TSD-4Pal-Aib-I-αMeL-LD-Orn-K((2-[2-(2-Amino-ethoxy)-ethoxy]-acetyl)2-(γ-Glu)-CO-(CH2)12-CO2H)AQ-Aib-K((2-[2-(2-Amino-ethoxy)-ethoxy]-acetyl)2-(γ-Glu)-CO-(CH2)12-CO2H)FI-(D-Glu)-αMeY-LI-Orn-GGPSSGAPPPS-NH2) [Example 406]
### Response med

### Prompt Please classify: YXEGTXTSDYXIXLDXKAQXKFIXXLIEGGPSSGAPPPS (Y-Aib-EGT-αMeF(2F)-TSDY-Aib-I-αMeL-LD-Orn-K((2-[2-(2-Amino-ethoxy)-ethoxy]-acetyl)-(γ-Glu)-CO-(CH2)12-CO2H)AQ-Aib-K((2-[2-(2-Amino-ethoxy)-ethoxy]-acetyl)-(γ-Glu)-CO-(CH2)12-CO2H)FI-(D-Glu)-αMeY-LIEGGPSSGAPPPS-NH2) [Example 366]
### Response hi

### Prompt Please classify: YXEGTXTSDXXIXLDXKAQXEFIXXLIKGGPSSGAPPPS (Y-Aib-EGT-αMeF(2F)-TSD-4Pal-Aib-I-αMeL-LD-Orn-K((2-[2-(2-Amino-ethoxy)-ethoxy]-acetyl)-Aoc-CO-(CH2)12-CO2H)AQ-Aib-EFI-(D-Glu)-αMeY-LIK(((2-[2-(2-Amino-ethoxy)-ethoxy]-acetyl)-Aoc-CO-(CH2)12-CO2H)GGPSSGAPPPS-NH2)) [Example 465]
### Response hi
